Target: D(2) dopamine receptor (Rattus norvegicus, UniProt P61169)
Sequence (P61169 whole entry): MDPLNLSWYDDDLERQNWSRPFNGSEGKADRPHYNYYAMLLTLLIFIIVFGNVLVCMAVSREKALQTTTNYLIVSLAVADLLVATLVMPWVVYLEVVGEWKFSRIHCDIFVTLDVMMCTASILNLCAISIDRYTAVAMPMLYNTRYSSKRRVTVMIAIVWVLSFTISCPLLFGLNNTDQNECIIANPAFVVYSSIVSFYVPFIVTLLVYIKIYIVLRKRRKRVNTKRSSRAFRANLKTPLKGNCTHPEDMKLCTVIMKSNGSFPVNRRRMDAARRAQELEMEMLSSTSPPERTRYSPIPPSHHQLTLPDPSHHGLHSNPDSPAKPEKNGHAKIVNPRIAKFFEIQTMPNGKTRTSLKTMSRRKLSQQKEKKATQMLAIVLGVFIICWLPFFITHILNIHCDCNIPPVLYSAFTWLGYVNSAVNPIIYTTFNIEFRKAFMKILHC
Experiment: Displacement of [3H]spiperone from dopamine D2 receptor in CRL:CD(SD)BR-COBS rat striatum by scintillation spectrometry
Ki: recorded values
All answers are understood in nM, so give the number only.

Study these solved cases before continuing.
>  <INPUT SMILES>
c1ccc(N2CCN(CCCCCCN3CCN(c4ccccn4)CC3)CC2)cc1

>  <MEASURED METRIC>
Ki

>  <DATA VALUE>
34

$$$$
>  <INPUT SMILES>
Cc1cccc(N2CCN(CCCCCCN3CCN(c4ccccn4)CC3)CC2)c1

>  <MEASURED METRIC>
Ki

>  <DATA VALUE>
44

$$$$

Then there is this compound:
Can you look up the measured Ki of `Cc1cccc(N2CCN(CCCCNC(=O)c3cc4ccccc4o3)CC2)c1` for me? 4.5

====

Ki: recorded values
Biological target: Voltage-gated inwardly rectifying potassium channel KCNH2 (Homo sapiens, UniProt Q12809)
Sequence (Q12809 whole entry): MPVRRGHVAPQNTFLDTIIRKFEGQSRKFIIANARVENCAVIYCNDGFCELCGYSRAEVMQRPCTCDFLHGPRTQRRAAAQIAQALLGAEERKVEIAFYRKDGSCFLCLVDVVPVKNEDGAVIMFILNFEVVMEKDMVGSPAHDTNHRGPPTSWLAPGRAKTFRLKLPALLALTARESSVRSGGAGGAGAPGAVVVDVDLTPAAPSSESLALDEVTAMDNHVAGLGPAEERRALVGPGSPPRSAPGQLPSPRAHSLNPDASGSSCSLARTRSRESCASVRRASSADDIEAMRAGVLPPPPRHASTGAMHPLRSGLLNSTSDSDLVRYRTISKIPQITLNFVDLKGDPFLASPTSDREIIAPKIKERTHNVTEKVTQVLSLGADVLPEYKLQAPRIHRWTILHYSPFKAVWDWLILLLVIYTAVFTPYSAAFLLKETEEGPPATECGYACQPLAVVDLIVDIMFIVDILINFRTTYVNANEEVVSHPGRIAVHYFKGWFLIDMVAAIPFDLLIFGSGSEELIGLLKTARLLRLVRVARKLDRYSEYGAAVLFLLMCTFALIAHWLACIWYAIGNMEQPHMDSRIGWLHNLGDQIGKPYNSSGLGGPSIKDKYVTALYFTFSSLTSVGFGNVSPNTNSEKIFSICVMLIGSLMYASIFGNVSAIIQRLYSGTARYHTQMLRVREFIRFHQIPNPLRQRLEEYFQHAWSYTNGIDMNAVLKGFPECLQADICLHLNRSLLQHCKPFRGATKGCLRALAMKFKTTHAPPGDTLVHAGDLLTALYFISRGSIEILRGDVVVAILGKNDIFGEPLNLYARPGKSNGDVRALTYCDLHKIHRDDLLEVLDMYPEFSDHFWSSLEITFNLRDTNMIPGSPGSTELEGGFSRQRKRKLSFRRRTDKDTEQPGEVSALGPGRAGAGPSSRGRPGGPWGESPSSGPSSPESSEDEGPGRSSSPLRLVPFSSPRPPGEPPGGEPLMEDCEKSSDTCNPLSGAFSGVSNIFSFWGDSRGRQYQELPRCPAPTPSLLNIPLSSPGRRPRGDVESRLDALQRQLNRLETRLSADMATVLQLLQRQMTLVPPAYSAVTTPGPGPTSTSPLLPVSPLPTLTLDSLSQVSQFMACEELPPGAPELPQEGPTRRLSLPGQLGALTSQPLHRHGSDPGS
All answers are understood in µM, so give the number only.

Study these solved cases before continuing.
>  <INPUT SMILES>
c1ccc(N2CCN(CCCCCCN3CCN(c4ccccc4)CC3)CC2)cc1

>  <UNIT NAME>
µM

>  <Ki>
8

$$$$
>  <INPUT SMILES>
c1ccc(N2CCN(CCCCCCN3CCN(c4ccccn4)CC3)CC2)cc1

>  <UNIT NAME>
µM

>  <Ki>
13

$$$$
>  <INPUT SMILES>
COc1cccc(N2CCN(CCCCCCN3CCN(c4cccc(OC)c4)CC3)CC2)c1

>  <UNIT NAME>
µM

>  <Ki>
2.4

$$$$
>  <INPUT SMILES>
Cc1cccc(N2CCN(CCCCCCN3CCN(c4ccccn4)CC3)CC2)c1

>  <UNIT NAME>
µM

>  <Ki>
8.7

$$$$
>  <INPUT SMILES>
c1ccc(N2CCN(CCCCCCN3CCN(c4ccnc5ccccc45)CC3)CC2)cc1

>  <UNIT NAME>
µM

>  <Ki>
3.8

$$$$

Query for Voltage-gated inwardly rectifying potassium channel KCNH2 (Homo sapiens, UniProt Q12809): what Ki does the record show for `Cc1cccc(N2CCN(CCCCCCN3CCN(c4cccc(C)c4)CC3)CC2)c1` ? 2.2

Query for Voltage-gated inwardly rectifying potassium channel KCNH2 (Homo sapiens, UniProt Q12809): what Ki does the record show for `COc1cccc(N2CCN(CCCCCCN3CCN(c4cccc(Cl)c4)CC3)CC2)c1` ? 1.2

Query for Voltage-gated inwardly rectifying potassium channel KCNH2 (Homo sapiens, UniProt Q12809): what Ki does the record show for `Clc1cccc(N2CCN(CCCCCCN3CCN(c4cccc(Cl)c4)CC3)CC2)c1` ? 0.3

Query for Voltage-gated inwardly rectifying potassium channel KCNH2 (Homo sapiens, UniProt Q12809): what Ki does the record show for `Cc1cccc(N2CCN(CCCCCCN3CCN(c4ccccc4)CC3)CC2)c1` ? 3.8

Query for Voltage-gated inwardly rectifying potassium channel KCNH2 (Homo sapiens, UniProt Q12809): what Ki does the record show for `Cc1cccc(N2CCN(CCCCCCN3CCN(c4ccnc5ccccc45)CC3)CC2)c1` ? 0.9

====

Test: Tmax in NMRI mouse at 3 mg/kg, ip
Format: ADME, organism-based
Design: dose 3 mg/kg, route intraperitoneal
Details: in vivo
MEASURED METRIC: Tmax (min)
All answers are understood in min, so give the number only.

Study these solved cases before continuing.
>  <INPUT SMILES>
Cc1cccc(N2CCN(CCCCCCN3CCN(c4cccc(C)n4)CC3)CC2)c1

>  <DATA VALUE>
120

$$$$
>  <INPUT SMILES>
c1ccc(N2CCN(CCCCCCN3CCN(c4ccccn4)CC3)CC2)cc1

>  <DATA VALUE>
60

$$$$

Can you look up the measured Tmax of `c1ccc(N2CCN(CCCCCCN3CCN(c4ccccn4)CC3)CC2)nc1` for me? 60

Can you look up the measured Tmax of `c1ccc(N2CCN(CCCCCCN3CCN(c4ccccc4)CC3)CC2)cc1` for me? 30

Can you look up the measured Tmax of `Cc1cccc(N2CCN(CCCCCCN3CCN(c4ccccc4)CC3)CC2)c1` for me? 30

Can you look up the measured Tmax of `Cc1cccc(N2CCN(CCCCNC(=O)c3cc4ccccc4o3)CC2)c1` for me? 30

Can you look up the measured Tmax of `Cc1cccc(N2CCN(CCCCCCN3CCN(c4ccccc4)CC3)CC2)n1` for me? 18

====

Biological target: D(1A) dopamine receptor (Rattus norvegicus)
Sequence (P18901 whole entry): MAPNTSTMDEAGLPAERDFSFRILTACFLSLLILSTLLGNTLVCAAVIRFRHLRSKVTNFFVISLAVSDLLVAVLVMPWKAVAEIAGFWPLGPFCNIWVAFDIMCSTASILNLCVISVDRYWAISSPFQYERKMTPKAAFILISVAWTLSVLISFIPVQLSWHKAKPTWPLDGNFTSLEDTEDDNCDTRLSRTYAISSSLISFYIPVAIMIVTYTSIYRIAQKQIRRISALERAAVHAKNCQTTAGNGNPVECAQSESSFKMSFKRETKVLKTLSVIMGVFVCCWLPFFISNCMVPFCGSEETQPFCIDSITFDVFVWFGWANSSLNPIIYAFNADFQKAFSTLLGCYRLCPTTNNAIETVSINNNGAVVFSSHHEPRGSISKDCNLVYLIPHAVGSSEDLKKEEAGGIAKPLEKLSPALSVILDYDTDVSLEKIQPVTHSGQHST
Assay: Displacement of [3H]SCH23390 from dopamine D1 receptor in CRL:CD(SD)BR-COBS rat striatum by scintillation spectrometry
Ki: recorded values

Study these solved cases before continuing.
>  <INPUT SMILES>
Clc1cccc(N2CCN(CCCCCCN3CCN(c4cccc(Cl)c4)CC3)CC2)c1

>  <Ki>
> 1000 nM

$$$$
>  <INPUT SMILES>
Cc1cccc(N2CCN(CCCCNC(=O)c3cc4ccccc4o3)CC2)c1

>  <Ki>
263 nM

$$$$

Can you look up the measured Ki of `Cc1cccc(N2CCN(CCCCCCN3CCN(c4ccccc4)CC3)CC2)c1` for me? > 1000 nM

====

Assay: Lipophilicity, log D at pH 7.4
Format: physicochemical
Conditions: buffer
Param label: returns true when logD < 3, returns false otherwise, including exact equality.

The examples below pair each entry with its known result.
>  <INPUT SMILES>
Cc1cccc(N2CCN(CCCCCCN3CCN(c4ccccc4)CC3)CC2)n1

>  <CLASS LABEL>
true

$$$$
>  <INPUT SMILES>
COc1cccc(N2CCN(CCCCCCN3CCN(c4cccc(OC)c4)CC3)CC2)c1

>  <CLASS LABEL>
false

$$$$
>  <INPUT SMILES>
Cc1cccc(N2CCN(CCCCCCN3CCN(c4ccccn4)CC3)CC2)c1

>  <CLASS LABEL>
true

$$$$
>  <INPUT SMILES>
c1ccc(N2CCN(CCCCCCN3CCN(c4ccccn4)CC3)CC2)cc1

>  <CLASS LABEL>
true

$$$$
>  <INPUT SMILES>
c1ccc(N2CCN(CCCCCCN3CCN(c4ccnc5ccccc45)CC3)CC2)cc1

>  <CLASS LABEL>
false

$$$$
>  <INPUT SMILES>
Cc1cccc(N2CCN(CCCCCCN3CCN(c4cccc(C)c4)CC3)CC2)c1

>  <CLASS LABEL>
false

$$$$
>  <INPUT SMILES>
COc1cccc(N2CCN(CCCCCCN3CCN(c4cccc(Cl)c4)CC3)CC2)c1

>  <CLASS LABEL>
false

$$$$
>  <INPUT SMILES>
Cc1cccc(N2CCN(CCCCCCN3CCN(c4ccnc5ccccc45)CC3)CC2)c1

>  <CLASS LABEL>
false

$$$$

Dear colleague, could you confirm whether logD of `Cc1cccc(N2CCN(CCCCCCN3CCN(c4ccccc4)CC3)CC2)c1` falls below 3? Thanks. false

Dear colleague, could you confirm whether logD of `Cc1cccc(N2CCN(CCCCCCN3CCN(c4cccc(C)n4)CC3)CC2)c1` falls below 3? Thanks. true

Dear colleague, could you confirm whether logD of `c1ccc(N2CCN(CCCCCCN3CCN(c4ccccn4)CC3)CC2)nc1` falls below 3? Thanks. true

Dear colleague, could you confirm whether logD of `Clc1cccc(N2CCN(CCCCCCN3CCN(c4cccc(Cl)c4)CC3)CC2)c1` falls below 3? Thanks. false
